# subjectOfTest: human complement protein C3
parameter: ED50 80% human plasma (60 min, nM), C3 cleavage

protein | measValue
Q38H/I41A/D60bV/F60eR/Y60gW/D96P/F97W/ins97aN/T98G/F99L/C122S/G151N/Q175L/Q192E (protein) VVGGTDADEGEWPWQVSLHALGHGHACGASLISPNWLVSAAHCYIDVRGRRWSDPTQWTAFLGLHDQSQRSAPGVQERRLKRIISHPFFNPWNGLDYDIALLELEKPAEYSSMVRPISLPDASHVFPAGKAIWVTGWGHTQYGGTNALILQKGEIRVINQTTCENLLPQLITPRMMCVGFLSGGVDSCEGDSGGPLSSVEADGRIFQAGVVSWGDGCAQRNKPGVYTRLPLFRDWIKENTGV | 47 nM
Q38H/I41S/D60bT/F60eS/Y60gW/D96V/F97G/ins97aV/T98P/F99L/C122S/G151H/Q175L/Q192D (protein) VVGGTDADEGEWPWQVSLHALGHGHSCGASLISPNWLVSAAHCYIDTRGSRWSDPTQWTAFLGLHDQSQRSAPGVQERRLKRIISHPFFNVGVPLDYDIALLELEKPAEYSSMVRPISLPDASHVFPAGKAIWVTGWGHTQYGGTHALILQKGEIRVINQTTCENLLPQLITPRMMCVGFLSGGVDSCDGDSGGPLSSVEADGRIFQAGVVSWGDGCAQRNKPGVYTRLPLFRDWIKENTGV | 27 nM
Wild-type MTSP-1 protease domain with C122S (protein) VVGGTDADEGEWPWQVSLHALGQGHICGASLISPNWLVSAAHCYIDDRGFRYSDPTQWTAFLGLHDQSQRSAPGVQERRLKRIISHPFFNDFTFDYDIALLELEKPAEYSSMVRPISLPDASHVFPAGKAIWVTGWGHTQYGGTGALILQKGEIRVINQTTCENLLPQQITPRMMCVGFLSGGVDSCQGDSGGPLSSVEADGRIFQAGVVSWGDGCAQRNKPGVYTRLPLFRDWIKENTGV | 3500 nM
Q38H/I41S/D60bT/F60eS/Y60gW/F97D/ins97aV/T98P/F99L/C122S/G151H/Q175L/Q192E (protein) VVGGTDADEGEWPWQVSLHALGHGHSCGASLISPNWLVSAAHCYIDTRGSRWSDPTQWTAFLGLHDQSQRSAPGVQERRLKRIISHPFFNDDVPLDYDIALLELEKPAEYSSMVRPISLPDASHVFPAGKAIWVTGWGHTQYGGTHALILQKGEIRVINQTTCENLLPQLITPRMMCVGFLSGGVDSCEGDSGGPLSSVEADGRIFQAGVVSWGDGCAQRNKPGVYTRLPLFRDWIKENTGV | 50 nM

Now for the protein whose ED50 80% human plasma (60 min, nM), C3 cleavage we want.
Item: Q38H/I41S/D60bT/F60eS/Y60gW/D96L/F97D/ins97aG/T98N/F99L/C122S/G151H/Q175L/Q192E (protein) VVGGTDADEGEWPWQVSLHALGHGHSCGASLISPNWLVSAAHCYIDTRGSRWSDPTQWTAFLGLHDQSQRSAPGVQERRLKRIISHPFFNLDGNLDYDIALLELEKPAEYSSMVRPISLPDASHVFPAGKAIWVTGWGHTQYGGTHALILQKGEIRVINQTTCENLLPQLITPRMMCVGFLSGGVDSCEGDSGGPLSSVEADGRIFQAGVVSWGDGCAQRNKPGVYTRLPLFRDWIKENTGV | ED50 80% human plasma (60 min, nM), C3 cleavage: 39 nM
